Assay: Plasma protein binding in human at 10 uM after 4 hrs by LC/MS analysis
Format: ADME, cell-free
Conditions: read-out: PPB (converted)
Threshold rule: fraction unbound at 4 h, 10 µM greater than or equal to 0.07 is 1.0; below that, 0.0.

Below are worked cases with known answers.
* O=[N+]([O-])c1ccc(C2=NOC(c3ccc(N4CCOCC4)c(F)c3)C2)o1 (stereo unspecified) | 0.0
* O=[N+]([O-])c1ccc(C2=NOC(c3ccc(N4CC[S+]([O-])CC4)cc3)C2)o1 (stereo unspecified) | 1.0
* O=[N+]([O-])c1ccc(C2=NOC(c3ccc(N4CCSCC4)cc3)C2)o1 (stereo unspecified) | 0.0
* O=[N+]([O-])c1ccc(C2=NOC(c3ccc(N4CCOCC4)nc3)C2)o1 (stereo unspecified) | 0.0
* CN1CCN(c2ccc(C3CC(c4ccc([N+](=O)[O-])o4)=NO3)cc2F)C(=O)C1 (stereo unspecified) | 1.0

Q: Given the entry CN1CCN(c2ccc(C3CC(c4ccc([N+](=O)[O-])o4)=NO3)cc2)C(=O)C1 (stereo unspecified) , answer whether its fraction unbound at 4 h, 10 µM meets or surpasses 0.07.
Ans: 1.0

Q: Given the entry O=[N+]([O-])c1ccc(C2=NOC(c3ccc(N4CCOCC4)cc3)C2)o1 (stereo unspecified) , answer whether its fraction unbound at 4 h, 10 µM meets or surpasses 0.07.
Ans: 0.0

Q: Given the entry O=C1COCCN1c1ccc(C2CC(c3ccc([N+](=O)[O-])o3)=NO2)cn1 (stereo unspecified) , answer whether its fraction unbound at 4 h, 10 µM meets or surpasses 0.07.
Ans: 1.0

====

Assay: Half life in mouse liver microsomes
Format: ADME, Microsome
METRIC: half-life (min)
Number only, in min; omit the unit.

Completed entries (count: 5):
- O=[N+]([O-])c1ccc(C2=NOC(c3ccc(N4CC[S+]([O-])CC4)cc3)C2)o1 (centres undefined): 52.2
- O=[N+]([O-])c1ccc(C2=NOC(c3ccc(N4CCOCC4)nc3)C2)o1 (centres undefined): 73.8
- CN1CCN(c2ccc(C3CC(c4ccc([N+](=O)[O-])o4)=NO3)cc2F)C(=O)C1 (centres undefined): 37.2
- O=C1COCCN1c1ccc(C2CC(c3ccc([N+](=O)[O-])o3)=NO2)cc1F (centres undefined): 82.8
- O=[N+]([O-])c1ccc(C2=NOC(c3ccc(N4CCSCC4)cc3)C2)o1 (centres undefined): 2.4

Q: Read off the recorded half-life for O=C1COCCN1c1ccc(C2CC(c3ccc([N+](=O)[O-])o3)=NO2)cn1 (centres undefined)
Ans: 60.6

Q: Read off the recorded half-life for O=[N+]([O-])c1ccc(C2=NOC(c3ccc(N4CCCCC4)cc3)C2)o1 (centres undefined)
Ans: 46.8

Q: Read off the recorded half-life for CN1CCN(c2ccc(C3CC(c4ccc([N+](=O)[O-])o4)=NO3)cn2)C(=O)C1 (centres undefined)
Ans: 21

Q: Read off the recorded half-life for O=C1COCCN1c1ccc(C2CC(c3ccc([N+](=O)[O-])o3)=NO2)cc1 (centres undefined)
Ans: 84

====

Tested on: Rattus norvegicus
Assay: Oral bioavailability in Sprague-Dawley rat at 100 mg/kg
Format: ADME, organism-based
Conditions: in vivo
Property: F; scope: individual compounds
Number only, in %; omit the unit.

Completed entries (count: 3):
* O=[N+]([O-])c1ccc(C2=NOC(c3ccc(N4CCCCC4)cc3)C2)o1 (centres undefined) | 29.4
* O=[N+]([O-])c1ccc(C2=NOC(c3ccc(N4CCOCC4)cc3)C2)o1 (centres undefined) | 100
* CN1CCN(c2ccc(C3CC(c4ccc([N+](=O)[O-])o4)=NO3)cc2)C(=O)C1 (centres undefined) | 58.3

Q: Read off the recorded F for O=[N+]([O-])c1ccc(C2=NOC(c3ccc(N4CCOCC4)nc3)C2)o1 (centres undefined)
Ans: 47.9

Every entry's value here was drawn from ChEMBL document CHEMBL2146426.
